Each entry below carries its recorded normalized growth.
ASSAY_NAME: chemical genetic growth profiling, strain panel (AID 1159580);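 also: tested at 20 µM; growth read once vehicle control cultures reached saturation at 30 °C; 1 = growth at the plate median or of vehicle wells; lower values mean less growth of the strain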
COND: S. cerevisiae deletion strains, growth OD, locus YDL040C, strain nat1, active compounds read low
About 2,000 (36%) of roughly 5,500 compounds were called active. Roughly 18% stayed inconclusive and do not appear here. Some of the results follow.
Answer with a bare number; do not write a unit.

Example cases with answers are listed next.
| COMPOUND | normalized growth |
| --- | --- |
| CC(=O)NS(=O)(=O)c1ccc(N)cc1 | 0.995 |
| CC[C@H]1OC(=O)[C@H](C)[C@@H](O[C@H]2C[C@@](C)(OC)[C@@H](O)[C@H](C)O2)[C@H](C)[C@@H](O[C@@H]2O[C@H](C)C[C@H](N(C)C)[C@H]2O)[C@](C)(O)C[C@@H](C)/C(=N/OCOCCOC)[C@H](C)[C@@H](O)[C@]1(C)O | 1.01 |
| CCCCCCCCCCCCCCCC(=O)OC[C@H](NC(=O)C(Cl)Cl)[C@H](O)c1ccc([N+](=O)[O-])cc1 | 1.01 |

For the next question, use this compound.
Would you kindly share the measured normalized growth for CC(=O)Oc1c(C)c(C)c2c(c1C)CCC(C)(CCCC(C)CCCC(C)CCCC(C)C)O2 (centres undefined) ?
0.98
